Just for reference, PubChem BioAssay (NCI) is where these values come from.

Test system: HL-60(TB) leukemia
method-description: NCI tumour cell line growth inhibition, 48 h
observable: TGI

Worked cases, answers included:
c1ccc2c(c1)CCc1c(-c3ccncc3)n[nH]c1-2 :: 88.8 µM
COc1cccc2c1OC(c1cccc3ccccc13)C([N+](=O)[O-])=C2 (stereo not given) :: > 100 µM
[N-]=[N+]=CC(=O)OC(CCl)CCl :: > 100 µM
CC[C@]1(O)C[C@H]2CN(CCc3c([nH]c4ccccc34)C(C(=O)OC)(c3cc4c(cc3OC)N(C)[C@H]3[C@@](O)(C(=O)OC)[C@H](OC(C)=O)[C@]5(CC)[C@@H]6C[C@@H]6CN6CC[C@]43[C@@H]65)C2)C1 (stereo not given in full) :: 0.0108 µM

Next compound, TGI to be filled in.
Query :: Find the measured TGI: item CC1(C)C=CC(=O)C(O)C(C)(C)C1=O (stereo not given) , target or system HL-60(TB) leukemia.
Result :: > 100 µM
